Origin of the recorded values: BigSolDB 2.1

Conditions: in isopropanol, 318.15 K

chemical-smiles	solubility (mole fraction)
Cc1occc(=O)c1O	0.0265

---

Settings: in n-propyl acetate, 323.15 K

chemical-smiles	solubility (mole fraction)
Cc1occc(=O)c1O	0.0316

---

Details: in acetone, 318.15 K

chemical-smiles	solubility (mole fraction)
Cc1occc(=O)c1O	0.0265

---

Settings: in n-propyl acetate, 308.15 K

chemical-smiles	solubility (mole fraction)
Cc1occc(=O)c1O	0.0181

---

Conditions: in n-butyl acetate, 308.15 K

chemical-smiles	solubility (mole fraction)
Cc1occc(=O)c1O	0.0193

---

Settings: in n-propanol, 293.15 K

chemical-smiles	solubility (mole fraction)
Cc1occc(=O)c1O	0.00931

---

Conditions: in ethyl acetate, 323.15 K

chemical-smiles	solubility (mole fraction)
Cc1occc(=O)c1O	0.0413

---

Settings: in isopropanol, 298.15 K

chemical-smiles	solubility (mole fraction)
Cc1occc(=O)c1O	0.0103

---

Details: in ethanol, 308.15 K
property-measured: solubility (mole fraction)

chemical-smiles	property-measured	data-value
Cc1occc(=O)c1O	solubility (mole fraction)	0.0211

---

Details: in 1,2-dichloroethane, 313.15 K

chemical-smiles	solubility (mole fraction)
Cc1occc(=O)c1O	0.0333

---

Settings: in sec-butanol, 323.15 K

chemical-smiles	solubility (mole fraction)
Cc1occc(=O)c1O	0.0408

---

Conditions: in n-butyl acetate, 303.15 K
property-measured: solubility (mole fraction)

chemical-smiles	data-value
Cc1occc(=O)c1O	0.0148

---

Details: in n-propyl acetate, 313.15 K

chemical-smiles	solubility (mole fraction)
Cc1occc(=O)c1O	0.0226

---

Conditions: in ethanol, 303.15 K

chemical-smiles	solubility (mole fraction)
Cc1occc(=O)c1O	0.0156

---

Details: in methanol, 303.15 K
property-measured: solubility (mole fraction)

chemical-smiles	data-value
Cc1occc(=O)c1O	0.0223

---

Conditions: in methanol, 288.15 K

chemical-smiles	solubility (mole fraction)
Cc1occc(=O)c1O	0.0135

---

Settings: in isobutanol, 318.15 K

chemical-smiles	solubility (mole fraction)
Cc1occc(=O)c1O	0.0293

---

Conditions: in n-butyl acetate, 323.15 K

chemical-smiles	solubility (mole fraction)
Cc1occc(=O)c1O	0.0317

---

Details: in n-butanol, 323.15 K

chemical-smiles	solubility (mole fraction)
Cc1occc(=O)c1O	0.0365

---

Conditions: in n-butanol, 308.15 K

chemical-smiles	solubility (mole fraction)
Cc1occc(=O)c1O	0.0182

---

Details: in sec-butanol, 298.15 K

chemical-smiles	solubility (mole fraction)
Cc1occc(=O)c1O	0.0111

---

Settings: in isobutanol, 313.15 K
property-measured: solubility (mole fraction)

chemical-smiles	property-measured	data-value
Cc1occc(=O)c1O	solubility (mole fraction)	0.0238

---

Settings: in n-propyl acetate, 318.15 K

chemical-smiles	solubility (mole fraction)
Cc1occc(=O)c1O	0.026

---

Conditions: in isobutanol, 308.15 K
property-measured: solubility (mole fraction)

chemical-smiles	data-value
Cc1occc(=O)c1O	0.0185

---

Settings: in acetonitrile, 318.15 K

chemical-smiles	solubility (mole fraction)
Cc1occc(=O)c1O	0.0258

---

Conditions: in isopropanol, 308.15 K
property-measured: solubility (mole fraction)

chemical-smiles	data-value
Cc1occc(=O)c1O	0.0161

---

Conditions: in n-butanol, 298.15 K

chemical-smiles	solubility (mole fraction)
Cc1occc(=O)c1O	0.0115

---

Details: in methanol, 313.15 K

chemical-smiles	solubility (mole fraction)
Cc1occc(=O)c1O	0.0325

---

Conditions: in isopropanol, 303.15 K

chemical-smiles	solubility (mole fraction)
Cc1occc(=O)c1O	0.0129

---

Details: in n-propanol, 303.15 K

chemical-smiles	solubility (mole fraction)
Cc1occc(=O)c1O	0.0144

---

Settings: in 1,2-dichloroethane, 303.15 K

chemical-smiles	solubility (mole fraction)
Cc1occc(=O)c1O	0.0214

---

Settings: in n-propanol, 323.15 K
property-measured: solubility (mole fraction)

chemical-smiles	data-value
Cc1occc(=O)c1O	0.0341

---

Conditions: in n-butyl acetate, 318.15 K

chemical-smiles	solubility (mole fraction)
Cc1occc(=O)c1O	0.0281

---

Details: in ethanol, 323.15 K
property-measured: solubility (mole fraction)

chemical-smiles	property-measured	data-value
Cc1occc(=O)c1O	solubility (mole fraction)	0.0427

---

Conditions: in n-butyl acetate, 288.15 K

chemical-smiles	solubility (mole fraction)
Cc1occc(=O)c1O	0.00889

---

Conditions: in ethanol, 293.15 K

chemical-smiles	solubility (mole fraction)
Cc1occc(=O)c1O	0.0106

---

Settings: in acetone, 308.15 K
property-measured: solubility (mole fraction)

chemical-smiles	property-measured	data-value
Cc1occc(=O)c1O	solubility (mole fraction)	0.0195

---

Conditions: in isobutanol, 303.15 K
property-measured: solubility (mole fraction)

chemical-smiles	property-measured	data-value
Cc1occc(=O)c1O	solubility (mole fraction)	0.0134

---

Conditions: in n-propanol, 308.15 K
property-measured: solubility (mole fraction)

chemical-smiles	property-measured	data-value
Cc1occc(=O)c1O	solubility (mole fraction)	0.0182

---

Settings: in n-butanol, 313.15 K
property-measured: solubility (mole fraction)

chemical-smiles	data-value
Cc1occc(=O)c1O	0.0228

---

Conditions: in acetonitrile, 308.15 K
property-measured: solubility (mole fraction)

chemical-smiles	property-measured	data-value
Cc1occc(=O)c1O	solubility (mole fraction)	0.016

---

Details: in methanol, 318.15 K
property-measured: solubility (mole fraction)

chemical-smiles	data-value
Cc1occc(=O)c1O	0.0373

---

Conditions: in sec-butanol, 293.15 K
property-measured: solubility (mole fraction)

chemical-smiles	data-value
Cc1occc(=O)c1O	0.00927

---

Settings: in acetone, 288.15 K
property-measured: solubility (mole fraction)

chemical-smiles	property-measured	data-value
Cc1occc(=O)c1O	solubility (mole fraction)	0.0101

---

Details: in sec-butanol, 308.15 K

chemical-smiles	solubility (mole fraction)
Cc1occc(=O)c1O	0.0177

---

Details: in acetone, 323.15 K

chemical-smiles	solubility (mole fraction)
Cc1occc(=O)c1O	0.0311

---

Settings: in 1,2-dichloroethane, 318.15 K
property-measured: solubility (mole fraction)

chemical-smiles	data-value
Cc1occc(=O)c1O	0.0378

---

Settings: in 1,2-dichloroethane, 298.15 K

chemical-smiles	solubility (mole fraction)
Cc1occc(=O)c1O	0.0174

---

Conditions: in n-butanol, 303.15 K

chemical-smiles	solubility (mole fraction)
Cc1occc(=O)c1O	0.0143

---

Details: in isobutanol, 298.15 K

chemical-smiles	solubility (mole fraction)
Cc1occc(=O)c1O	0.0108

---

Details: in n-butyl acetate, 298.15 K

chemical-smiles	solubility (mole fraction)
Cc1occc(=O)c1O	0.0128

---

Settings: in methanol, 323.15 K

chemical-smiles	solubility (mole fraction)
Cc1occc(=O)c1O	0.0465

---

Conditions: in sec-butanol, 288.15 K

chemical-smiles	solubility (mole fraction)
Cc1occc(=O)c1O	0.00716

---

Conditions: in isobutanol, 323.15 K

chemical-smiles	solubility (mole fraction)
Cc1occc(=O)c1O	0.0349

---

Conditions: in acetonitrile, 293.15 K

chemical-smiles	solubility (mole fraction)
Cc1occc(=O)c1O	0.00861

---

Details: in n-propyl acetate, 298.15 K

chemical-smiles	solubility (mole fraction)
Cc1occc(=O)c1O	0.013

---

Settings: in acetonitrile, 313.15 K

chemical-smiles	solubility (mole fraction)
Cc1occc(=O)c1O	0.0209

---

Settings: in ethanol, 313.15 K
property-measured: solubility (mole fraction)

chemical-smiles	property-measured	data-value
Cc1occc(=O)c1O	solubility (mole fraction)	0.0273

---

Conditions: in n-butanol, 318.15 K
property-measured: solubility (mole fraction)

chemical-smiles	data-value
Cc1occc(=O)c1O	0.03

---

Conditions: in ethyl acetate, 313.15 K

chemical-smiles	solubility (mole fraction)
Cc1occc(=O)c1O	0.0276

---

Settings: in ethyl acetate, 318.15 K

chemical-smiles	solubility (mole fraction)
Cc1occc(=O)c1O	0.0337

---

Settings: in acetone, 293.15 K
property-measured: solubility (mole fraction)

chemical-smiles	property-measured	data-value
Cc1occc(=O)c1O	solubility (mole fraction)	0.0116

---

Conditions: in methanol, 293.15 K

chemical-smiles	solubility (mole fraction)
Cc1occc(=O)c1O	0.0159

---

Details: in ethyl acetate, 288.15 K

chemical-smiles	solubility (mole fraction)
Cc1occc(=O)c1O	0.0115

---

Details: in sec-butanol, 318.15 K

chemical-smiles	solubility (mole fraction)
Cc1occc(=O)c1O	0.0304

---

Conditions: in 1,2-dichloroethane, 323.15 K
property-measured: solubility (mole fraction)

chemical-smiles	data-value
Cc1occc(=O)c1O	0.048

---

Settings: in n-propyl acetate, 293.15 K

chemical-smiles	solubility (mole fraction)
Cc1occc(=O)c1O	0.0105

---

Conditions: in isobutanol, 293.15 K

chemical-smiles	solubility (mole fraction)
Cc1occc(=O)c1O	0.00832

---

Conditions: in ethyl acetate, 303.15 K
property-measured: solubility (mole fraction)

chemical-smiles	property-measured	data-value
Cc1occc(=O)c1O	solubility (mole fraction)	0.02
